These data points were gathered from paper PMC12668289.

- System: Pmluc-WT
- experiment.description: Steady-state kinetics of luciferase reactions (luminometer)
- Format: biochemical, Pyrocoelia miyako
- condition.parameters: relative to 2a compound
readout.name: Relative kcat
Please reply with the number alone, leaving off any unit.

- compound: "Cc1cc2nc(C3=N[C@@H](C(=O)O)CS3)sc2c(C)c1O [Compound 2c, 5’,7’-di-methyl-D-luciferin]"
  system.under.test: "Pmluc-WT"
  readout.name: "Relative kcat"
  observed.measurement: 7.7
- compound: "Cc1cc(O)c(C)c2sc(C3=N[C@@H](C(=O)O)CS3)nc12 [Compound 2e, 4′,7′-dimethyl-D-LH2]"
  system.under.test: "Pmluc-WT"
  readout.name: "Relative kcat"
  observed.measurement: 1.2

Then this compound:
Measured Relative kcat of Cc1cc2nc(C3=N[C@@H](C(=O)O)CS3)sc2cc1O [Compound 2b, 5’-methyl-D-luciferin] : 110.0
